For each record, write down the corresponding inhibition.
# assay target: Serine/threonine-protein kinase Sgk1 (Homo sapiens) (UniProt O00141)
# Sequence (O00141 whole entry): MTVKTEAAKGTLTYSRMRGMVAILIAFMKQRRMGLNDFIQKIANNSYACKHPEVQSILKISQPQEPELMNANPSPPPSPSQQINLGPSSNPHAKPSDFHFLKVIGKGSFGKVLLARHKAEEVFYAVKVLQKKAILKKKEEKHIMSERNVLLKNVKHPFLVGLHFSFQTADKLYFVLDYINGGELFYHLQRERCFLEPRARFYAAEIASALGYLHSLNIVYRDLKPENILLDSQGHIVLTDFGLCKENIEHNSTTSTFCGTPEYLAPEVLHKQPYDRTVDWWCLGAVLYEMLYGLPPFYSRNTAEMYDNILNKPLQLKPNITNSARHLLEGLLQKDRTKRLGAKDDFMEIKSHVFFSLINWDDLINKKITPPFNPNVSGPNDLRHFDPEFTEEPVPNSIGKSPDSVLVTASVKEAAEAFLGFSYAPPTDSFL
# conditions used: at 0.1 µM
# Description: GSK_PKIS: SGK1 mean inhibition at 0.1 uM [Nanosyn]
Write the value in % as a bare number.

Return inhibition for the following compound: NS(=O)(=O)c1ccc(-c2ccc3c(NC(=O)C4CC4)n[nH]c3c2)cc1
0.35

Give recorded inhibition. COc1cc(C=NNc2ncnc3c2cnn3Cc2ccccc2)ccc1O
-3.31

Please list inhibition recorded for the compound CCn1c(-c2nonc2N)nc2c(C#CC(C)(C)O)ncc(OC[C@@H]3CCCN3)c21
1.28

Report measured inhibition; entry is NS(=O)(=O)c1ccc(N/C=C2\C(=O)Nc3ccc4ncsc4c32)cc1
9.85

Using the record for CCn1c(-c2nonc2N)nc2c(C#CCN)ncc(OCCCN)c21 , state its measured inhibition.
1.23

Using known records, supply inhibition for NC(=O)c1sc(-n2cnc3cc(C(F)(F)F)ccc32)cc1OCc1ccccc1Br
1.54

Provide one value: measured inhibition of Fc1ccc(-c2ncn(C3CCNCC3)c2-c2ccnc(Oc3ccccc3)n2)cc1
0.46

Output inhibition of CCn1c(-c2nonc2N)nc2c(C#CC(C)(C)O)nc(O[C@@H](CN)c3ccccc3)cc21
4

Dear colleague, please send me the reported inhibition for Nc1nonc1-c1nc2cnccc2n1C1CCCCC1 when you can.
1.2

Tell me its inhibition given CCn1c(-c2nonc2N)nc2c(C#CC(C)(C)O)ncc(OCC3CCNCC3)c21 as the entry.
5.12

* * *

# System: Tyrosine-protein kinase ABL1 (Homo sapiens), P00519 [Q252H]
# conditions used: at 1 µM
Decision: inhibition compared against 3%; not below it gives Fulfilled, below it gives Not fulfilled.

Determine whether measured inhibition meets or exceeds 3% for Nc1nonc1-c1nc2cnccc2n1C1CCCCC1
Not fulfilled

Is inhibition for CCn1c(-c2nonc2N)nc2c(C#CCN)ncc(OCCCN)c21 at or above 3%?
Not fulfilled

Is reported inhibition greater than or equal to 3% here: Cc1cc(-c2ccco2)cc(C)c1/C=C/c1cncc(-c2nn[nH]n2)c1
Fulfilled

Exam item: decide whether the reported inhibition for COc1cccc(COc2cc(-n3cnc4ccccc43)sc2C(N)=O)c1 is at least 3%.
Fulfilled

Could you please find out whether COc1cc(C=NNc2ncnc3c2cnn3Cc2ccccc2)ccc1O has inhibition that meets 3% or exceeds it?
Fulfilled

Say whether Fc1ccc(-c2ncn(C3CCNCC3)c2-c2ccnc(Oc3ccccc3)n2)cc1 shows inhibition of 3% or more.
Not fulfilled

Hi, just wondering whether NS(=O)(=O)c1ccc(-c2ccc3c(NC(=O)C4CC4)n[nH]c3c2)cc1 shows inhibition of 3% or higher.
Fulfilled

* * *

# assay target: Aurora kinase A (Homo sapiens);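 also: each reported value is a mean percent inhibition of Aurora-A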
# conditions used: at 0.1 µM
recorded metric: inhibition (%)
Write it as a number; the unit % goes unstated.

Supply recorded inhibition for COc1cccc(COc2cc(-n3cnc4ccccc43)sc2C(N)=O)c1 here.
2.16

Please report inhibition for the following compound: Cc1cc(-c2ccco2)cc(C)c1/C=C/c1cncc(-c2nn[nH]n2)c1
3.01

Specify measured inhibition for NS(=O)(=O)c1ccc(-c2ccc3c(NC(=O)C4CC4)n[nH]c3c2)cc1 .
3.44

Read the entry NC(=O)c1sc(-n2cnc3cc(C(F)(F)F)ccc32)cc1OCc1ccccc1Br and write its reported inhibition.
1.18

State its inhibition for this compound: COc1cc2c(cc1Nc1nc(Nc3ccsc3C(N)=O)c3cc[nH]c3n1)N(C(=O)CN(C)C)CCC2
2.03

Identify the reported inhibition for the following entry. CCn1c(-c2nonc2N)nc2c(C#CCN)ncc(OCCCN)c21
-1.21

Output inhibition of CCn1c(-c2nonc2N)nc2c(C#CC(C)(C)O)ncc(OC[C@@H]3CCCN3)c21
3.07

Please report the measured inhibition for COc1cc(C=NNc2ncnc3c2cnn3Cc2ccccc2)ccc1O
2.88

Look up inhibition of CCn1c(-c2nonc2N)nc2c(C#CC(C)(C)O)ncc(OCC3CCNCC3)c21 and report it.
-1.94
